- system.tested: human TAS2R14 (Homo sapiens, UniProt Q9NYV8)
- Construct: expressed in transfected cells; host or cells: HEK293T-Gα16gust44
- Sequence (Q9NYV8 whole entry): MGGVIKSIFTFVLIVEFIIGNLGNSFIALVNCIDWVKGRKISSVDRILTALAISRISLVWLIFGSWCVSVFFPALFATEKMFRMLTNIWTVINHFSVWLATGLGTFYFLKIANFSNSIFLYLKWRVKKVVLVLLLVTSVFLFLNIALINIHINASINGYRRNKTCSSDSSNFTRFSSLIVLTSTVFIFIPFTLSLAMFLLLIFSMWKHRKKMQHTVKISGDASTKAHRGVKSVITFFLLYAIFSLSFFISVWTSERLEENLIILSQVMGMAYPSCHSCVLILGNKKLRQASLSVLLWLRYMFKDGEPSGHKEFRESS
- procedure.details: Calcium imaging assay (FLIPR), HEK293T-Gα16gust44 cells transfected with human TAS2R14
- Format: cell-based
- condition.summary: TAS2R14 trace; Time (s) 311.578 (Taurocholic Acid 311.563, Chenodeoxycholic Acid 311.546)
attribute.measured: RLU (RLU)
Give bare numbers, in RLU.

[[record]]
structure_smiles = "C[C@H](CCC(=O)NCC(=O)O)[C@H]1CC[C@H]2[C@@H]3[C@H](O)C[C@@H]4C[C@H](O)CC[C@]4(C)[C@H]3C[C@H](O)[C@]12C"
quantitative_readout = 201.505


Batch lookup, RLU per entry.
1. C[C@H](CCC(=O)NCCS(=O)(=O)O)[C@H]1CC[C@H]2[C@@H]3CC[C@@H]4C[C@H](O)CC[C@]4(C)[C@H]3CC[C@]12C
2. C[C@H](CCC(=O)NCCS(=O)(=O)O)[C@H]1CC[C@H]2[C@@H]3[C@H](O)C[C@@H]4C[C@H](O)CC[C@]4(C)[C@H]3C[C@H](O)[C@]12C
3. C[C@H](CCC(=O)O)[C@H]1CC[C@H]2[C@@H]3[C@H](O)C[C@@H]4C[C@H](O)CC[C@]4(C)[C@H]3CC[C@]12C
4. C[C@H](CCC(=O)O)[C@H]1CC[C@H]2[C@@H]3[C@H](O)C[C@@H]4C[C@H](O)CC[C@]4(C)[C@H]3C[C@H](O)[C@]12C

Result ::
[-14.8461, 88.6159, 184.812, 152.075]

###

- system.tested: human TAS2R1 (Homo sapiens, UniProt Q9NYW7)
- Construct: expressed in transfected cells; host or cells: HEK293T-Gα16gust44
- procedure.details: Calcium imaging assay (FLIPR), HEK293T-Gα16gust44 cells transfected with human TAS2R1
- Type: cell-based
- condition.summary: calcium trace, sheet TAS2R1; Time 323.562 s
attribute.measured: RLU (RLU)
Answers are plain numbers, in RLU.

[[record]]
structure_smiles = "C[C@H](CCC(=O)O)[C@H]1CC[C@H]2[C@@H]3CC[C@@H]4C[C@H](O)CC[C@]4(C)[C@H]3CC[C@]12C"
attribute_measured = "RLU"
quantitative_readout = 237.346


Batch request: RLU for each of the following molecules.
1. C[C@H](CCC(=O)O)[C@H]1CC[C@H]2[C@@H]3[C@H](O)C[C@@H]4C[C@H](O)CC[C@]4(C)[C@H]3C[C@H](O)[C@]12C
2. C[C@H](CCC(=O)O)[C@H]1CC[C@H]2[C@@H]3[C@@H](O)C[C@@H]4C[C@H](O)CC[C@]4(C)[C@H]3CC[C@]12C
3. C[C@H](CCC(=O)O)[C@H]1CC[C@H]2[C@@H]3[C@H](O)C[C@@H]4C[C@H](O)CC[C@]4(C)[C@H]3CC[C@]12C

Result ::
-27.2317
-21.7457
138.244

###

Task for the reader: assign each of the following compounds its reported RLU.
- system.tested: human TAS2R1 (Homo sapiens, UniProt Q9NYW7)
- Construct: expressed in transfected cells; host or cells: HEK293T-Gα16gust44
- Sequence (Q9NYW7 1-299): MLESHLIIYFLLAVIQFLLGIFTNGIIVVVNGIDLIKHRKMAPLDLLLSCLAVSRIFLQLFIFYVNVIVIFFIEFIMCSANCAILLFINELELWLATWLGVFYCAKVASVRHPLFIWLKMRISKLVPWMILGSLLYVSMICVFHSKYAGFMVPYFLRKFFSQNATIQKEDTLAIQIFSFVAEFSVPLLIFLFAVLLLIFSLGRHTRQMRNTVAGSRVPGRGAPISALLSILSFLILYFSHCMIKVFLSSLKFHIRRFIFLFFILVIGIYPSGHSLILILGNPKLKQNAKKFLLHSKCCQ
- procedure.details: Calcium imaging assay (FLIPR), HEK293T-Gα16gust44 cells transfected with human TAS2R1
- Type: cell-based
- condition.summary: Time 16.015 s
Numbers only, in RLU.

Consider the worked cases shown below.
[[record]]
structure_smiles = "C[C@H](CCC(=O)O)[C@H]1CC[C@H]2[C@@H]3CC[C@@H]4C[C@H](O)CC[C@]4(C)[C@H]3CC[C@]12C"
attribute_measured = "RLU"
quantitative_readout = -20.8125

[[record]]
structure_smiles = "C[C@H](CCC(=O)O)[C@H]1CC[C@H]2[C@@H]3[C@@H](O)C[C@@H]4C[C@H](O)CC[C@]4(C)[C@H]3CC[C@]12C"
attribute_measured = "RLU"
quantitative_readout = -36.3442

[[record]]
structure_smiles = "C[C@H](CCC(=O)O)[C@H]1CC[C@H]2[C@@H]3[C@H](O)C[C@@H]4C[C@H](O)CC[C@]4(C)[C@H]3CC[C@]12C"
attribute_measured = "RLU"
quantitative_readout = 20.4897


Query :: Suppose we examine the compound C[C@H](CCC(=O)O)[C@H]1CC[C@H]2[C@@H]3[C@H](O)C[C@@H]4C[C@H](O)CC[C@]4(C)[C@H]3C[C@H](O)[C@]12C ; what RLU value has been reported?
Result :: -20.0825

###

- system.tested: human TAS2R4 (Homo sapiens, UniProt Q9NYW5)
- Construct: expressed in transfected cells; host or cells: HEK293T-Gα16gust44
- Sequence (Q9NYW5 whole entry): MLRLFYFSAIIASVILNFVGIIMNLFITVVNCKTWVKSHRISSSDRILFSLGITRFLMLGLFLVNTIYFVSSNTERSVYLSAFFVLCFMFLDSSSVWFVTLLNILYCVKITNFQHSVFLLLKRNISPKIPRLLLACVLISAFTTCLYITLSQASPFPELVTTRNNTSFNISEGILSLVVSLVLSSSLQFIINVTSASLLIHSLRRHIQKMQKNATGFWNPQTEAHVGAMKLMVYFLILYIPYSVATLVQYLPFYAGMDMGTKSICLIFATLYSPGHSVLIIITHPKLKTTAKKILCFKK
- procedure.details: Calcium imaging assay (FLIPR), HEK293T-Gα16gust44 cells transfected with human TAS2R4; also: test concentration or dose not given here
- Type: cell-based
- condition.summary: Time (s) 215.547
attribute.measured: RLU, fluorescence trace (RLU)
Answers are plain numbers, in RLU.

Past entries and their recorded results:
[[record]]
structure_smiles = "C[C@H](CCC(=O)O)[C@H]1CC[C@H]2[C@@H]3CC[C@@H]4C[C@H](O)CC[C@]4(C)[C@H]3C[C@H](O)[C@]12C"
attribute_measured = "RLU, fluorescence trace"
unit_name = "RLU"
quantitative_readout = 318.834

[[record]]
structure_smiles = "C[C@H](CCC(=O)O)[C@H]1CC[C@H]2[C@@H]3[C@@H](O)C[C@@H]4C[C@H](O)CC[C@]4(C)[C@H]3CC[C@]12C"
attribute_measured = "RLU, fluorescence trace"
unit_name = "RLU"
quantitative_readout = 146.722

[[record]]
structure_smiles = "C[C@H](CCC(=O)NCC(=O)O)[C@H]1CC[C@H]2[C@@H]3[C@H](O)C[C@@H]4C[C@H](O)CC[C@]4(C)[C@H]3C[C@H](O)[C@]12C"
attribute_measured = "RLU, fluorescence trace"
unit_name = "RLU"
quantitative_readout = 197.074

[[record]]
structure_smiles = "C[C@H](CCC(=O)O)[C@H]1CC[C@H]2[C@@H]3[C@H](O)C[C@@H]4C[C@H](O)CC[C@]4(C)[C@H]3C[C@H](O)[C@]12C"
attribute_measured = "RLU, fluorescence trace"
unit_name = "RLU"
quantitative_readout = 251.011

[[record]]
structure_smiles = "C[C@H](CCC(=O)NCCS(=O)(=O)O)[C@H]1CC[C@H]2[C@@H]3CC[C@@H]4C[C@H](O)CC[C@]4(C)[C@H]3CC[C@]12C"
attribute_measured = "RLU, fluorescence trace"
unit_name = "RLU"
quantitative_readout = 65.3811


Next compound, please.
Query :: Which measured RLU, fluorescence trace value corresponds to C[C@H](CCC(=O)NCCS(=O)(=O)O)[C@H]1CC[C@H]2[C@@H]3[C@H](O)C[C@@H]4C[C@H](O)CC[C@]4(C)[C@H]3C[C@H](O)[C@]12C ?
Result :: 260.931

###

Exercise: state measured RLU for each of the compounds provided.
- system.tested: human TAS2R14 (Homo sapiens)
- Construct: expressed in transfected cells; host or cells: HEK293T-Gα16gust44
- procedure.details: Calcium imaging assay (FLIPR), HEK293T-Gα16gust44 cells transfected with human TAS2R14
- Assay type: cell-based
- condition.summary: TAS2R14 trace; Time (s) 134.797 (Chenodeoxycholic Acid 134.781)

Some solved entries appear below for comparison.
[[record]]
structure_smiles = "C[C@H](CCC(=O)O)[C@H]1CC[C@H]2[C@@H]3[C@H](O)C[C@@H]4C[C@H](O)CC[C@]4(C)[C@H]3C[C@H](O)[C@]12C"
result = "1262.84 RLU"

[[record]]
structure_smiles = "C[C@H](CCC(=O)NCCS(=O)(=O)O)[C@H]1CC[C@H]2[C@@H]3CC[C@@H]4C[C@H](O)CC[C@]4(C)[C@H]3CC[C@]12C"
result = "375.334 RLU"

[[record]]
structure_smiles = "C[C@H](CCC(=O)O)[C@H]1CC[C@H]2[C@@H]3[C@H](O)C[C@@H]4C[C@H](O)CC[C@]4(C)[C@H]3CC[C@]12C"
result = "415.628 RLU"

[[record]]
structure_smiles = "C[C@H](CCC(=O)NCC(=O)O)[C@H]1CC[C@H]2[C@@H]3[C@H](O)C[C@@H]4C[C@H](O)CC[C@]4(C)[C@H]3C[C@H](O)[C@]12C"
result = "944.802 RLU"


# input for lookup
Query :: # get_value(readout='RLU', item= C[C@H](CCC(=O)NCCS(=O)(=O)O)[C@H]1CC[C@H]2[C@@H]3[C@H](O)C[C@@H]4C[C@H](O)CC[C@]4(C)[C@H]3C[C@H](O)[C@]12C )
Result :: 1050.77 RLU
